System: Staphylococcus aureus ATCC29213
Assay details: Bacterial growth minimal inhibitory concentration (broth microdilution, CLSI M7-A7)
Type: cell-based
Condition summary: Staphylococcus aureus, ATCC29213, cation-adjusted Mueller-Hinton Broth, methicillin-sensitive and quinolone-sensitive strain, read-out: MIC for S. aureus ATCC29213
Mark y for MIC under 0.5 µg/mL, n if at or over.

Consider the following illustrative entries.
N#Cc1cnc(O)c(-c2cccc(CNCC[C@@H]3CN(c4ccc5c(c4)NC(=O)CS5)C(=O)O3)c2)c1 [Example 19]    n
N#CCOc1cccc(-c2cccc(CNCC[C@H]3CN(c4ccc5c(n4)NC(=O)CO5)C(=O)O3)c2)c1 [Example 65]    n
COc1ccc(OC)c(-c2cccc(CNCC[C@H]3CN(c4ccc5c(n4)NC(=O)CO5)C(=O)O3)c2)c1 [Example 64]    n
COc1cncc(-c2cccc(CNCC[C@@H]3CN(c4ccc5c(c4)NC(=O)CS5)C(=O)O3)c2)n1 [Example 25]    y
COc1cccc(-c2cccc(CNCC[C@H]3CN(c4ccc5c(c4)NC(=O)CS5)C(=O)O3)c2)n1 [Example 43]    y
O=C1COc2ccc(N3C[C@H](CCNCc4cccc(-c5cccc(OCCCO)c5)c4)OC3=O)nc2N1 [Example 53]    n
O=C1COc2ccc(N3C[C@H](CCNCc4cccc(-c5cccc(OCCCCO)c5)c4)OC3=O)nc2N1 [Example 67]    n

Please indicate whether the reported MIC of COc1cccc(-c2cccc(CNCC[C@@H]3CN(c4ccc5c(c4)NC(=O)CS5)C(=O)O3)n2)c1 [Example 20] is strictly below 0.5 µg/mL.
y

====

Tested on: Staphylococcus aureus ATCC29213
Assay details: Bacterial growth minimal inhibitory concentration (broth microdilution, CLSI M7-A7)
Type: cell-based
Condition summary: Staphylococcus aureus, ATCC29213, cation-adjusted Mueller-Hinton Broth, methicillin-sensitive and quinolone-sensitive strain, read-out: MIC for S. aureus ATCC29213
Measured MIC values are reported for all entries that follow.
Report the figure in µg/mL without appending any unit label.

A selection of reference data follows.
N#Cc1cnnc(-c2cccc(CNCC[C@H]3CN(c4ccc5c(n4)NC(=O)CO5)C(=O)O3)c2)c1    0.5
COC(=O)c1cccc(-c2cccc(CNCC[C@H]3CN(c4ccc5c(n4)NC(=O)CO5)C(=O)O3)c2)c1    0.5

Annotate the compound N#Cc1cccc(-c2cccc(CNCCc3nn(-c4ccc5c(n4)NC(=O)CO5)c(=O)o3)c2)c1 with its measured MIC.
0.5

meta.source: patent US9527867B2
